- assay.info: Plasma concentration in C57BL6 mouse at 10 mg/kg, ip after 1 hr by liquid chromatography/tandem mass spectrometry
- Type: ADME, organism-based
endpoint.name: concentration at 1 h (µM)
Value expressed in µM; do not type the unit.

Challenge: Return reported concentration at 1 h; argument: `O=C(Nc1ccc(C(O)(C(F)(F)F)C(F)(F)F)cc1)c1ccc(C(F)(F)F)cc1`
Response given: 3.6
